- Tested on: P. aeruginosa MDR CI 1995
- Assay type: cell-based
- condition: MDR CI 1995, 24 h
Positions of bridges follow the written chain, without caps; N, C: chain ends. No end group written: not given here.
experimental-readout: Minimum Inhibitory Concentration

Answered examples (8):
KTYYGTNGVHCTKNSLWGKVRLKNVKYDQNTTYIGRLQDILLGWATGAFGKTFH [OR-7(VI)]; >32 µM
TYYGTNGVSCNKKGCSVDWGKAISIIGNNSAANLATGGAAGWKS (disulfide 10-15) [AviA(T)]; >32 µM
KTYYGNGVHCTKKSLWGKVRLKNVIPGTLCRKQSLPIKQDLKILLGWATGAFGKTFH (disulfide 10-30) [AcdA(dT)]; 16 µM
KTYYGTNGVHCTKKSLWGKVRLKNVIPGTLCRKQSLPIKQDLKILLGWATGAFGKTFH (cysteines drawn unpaired) [AcdA (DTT reduced)]; >32 µM
KTYYGTNAVHCTKKSLWGKVRLKNVIPGTLCRKQSLPIKQDLKILLGWATGAFGKTFH (disulfide 11-31) [AcdA(G8A)]; 16 µM
KTYYGNGVHSTKKSLWGKVRLKNVIPGTLCRKQSLPIKQDLKILLGWATGAFGKTFH [AcdA(dT,C11S)]; >32 µM
TYYGNGVSCNKKGCSVDWGKAISIIGNNSAANLATGGAAGWKS (disulfide 9-14) [Avicin A]; >32 µM
KTYYGNGVHSTKKSLWGKVRLKNVIPGTLSRKQSLPIKQDLKILLGWATGAFGKTFH [AcdA(dT,C11S,C31S)]; >32 µM

Need Minimum Inhibitory Concentration of HCTKKSLWGKVRLKNVIPGTLCRKQSLPIKQDLKILLGWATGAFGKTFH (disulfide 2-22) [AcdA(d9)] , thanks. 16 µM

Would you kindly repeat that for KTYVGNTGYHCTKKSLWGKVRLKNVIPGTLCRKQSLPIKQDLKILLGWATGAFGKTFH (disulfide 11-31) [AcdA(x4)] ? 16 µM

Would you kindly repeat that for KTYYGNGVHCTKKSLWGKVRLKNVIPGTLSRKQSLPIKQDLKILLGWATGAFGKTFH [AcdA(dT,C31S)] ? >32 µM

Would you kindly repeat that for KTYYGNGVHCTKKSLWGKVRLKNVIPGTLCRKQSLPIKQDLKILLGWATGAFGKTFH (cysteines drawn unpaired) [AcdA(dT) (DTT reduced)] ? >32 µM

###

- Test system: L. monocytogenes EGD
- Format: cell-based, Listeria monocytogenes
- condition: 24 h
Positions of bridges follow the written chain, without caps; N, C: chain ends. No end group written: not given here.
experimental-readout: Minimum Inhibitory Concentration

KTYYGNGVHCTKKSLWGKVRLKNVIPGTLCRKQSLPIKQDLKILLGWATGAFGKTFH (cysteines drawn unpaired) [AcdA(dT) (DTT reduced)]; >32 µM
KTYYGTNAVHCTKKSLWGKVRLKNVIPGTLCRKQSLPIKQDLKILLGWATGAFGKTFH (disulfide 11-31) [AcdA(G8A)]; >32 µM

Please state recorded Minimum Inhibitory Concentration (tested on L. monocytogenes EGD) of KTYYGTNGVHCTKKSLWGKVRLKNVIPGTLCRKQSLPIKQDLKILLGWATGAFGKTFH (cysteines drawn unpaired) [AcdA (DTT reduced)] >32 µM

Would you kindly repeat that for KTYYGNGVHSTKKSLWGKVRLKNVIPGTLCRKQSLPIKQDLKILLGWATGAFGKTFH [AcdA(dT,C11S)] ? >32 µM

Would you kindly repeat that for HCTKKSLWGKVRLKNVIPGTLCRKQSLPIKQDLKILLGWATGAFGKTFH (disulfide 2-22) [AcdA(d9)] ? >32 µM

Would you kindly repeat that for KTYYGNGVHCTKKSLWGKVRLKNVIPGTLCRKQSLPIKQDLKILLGWATGAFGKTFH (disulfide 10-30) [AcdA(dT)] ? >128 µM

Would you kindly repeat that for TYYGNGVSCNKKGCSVDWGKAISIIGNNSAANLATGGAAGWKS (disulfide 9-14) [Avicin A] ? <0.125 µM

###

- System: E. coli ML-35p
- Assay type: cell-based
- condition: 24 h
Positions of bridges follow the written chain, without caps; N, C: chain ends. No end group written: not given here.
experimental-readout: Minimum Inhibitory Concentration (µM)
Field format: number, assumed µM, no unit text.

Answered examples (2):
KTYYGNGVHCTKKSLWGKVRLKNVIPGTLSRKQSLPIKQDLKILLGWATGAFGKTFH [AcdA(dT,C31S)]; 8
HCTKKSLWGKVRLKNVIPGTLCRKQSLPIKQDLKILLGWATGAFGKTFH (disulfide 2-22) [AcdA(d9)]; 4

Please state recorded Minimum Inhibitory Concentration (tested on E. coli ML-35p) of KTYYGTNGVHCTKKSLWGKVRLKNVIPGTLCRKQSLPIKQDLKILLGWATGAFGKTFH (cysteines drawn unpaired) [AcdA (DTT reduced)] 4

###

- Tested on: S. aureus 209P
- Type: cell-based
- condition: 24 h
Positions of bridges follow the written chain, without caps; N, C: chain ends. No end group written: not given here.
experimental-readout: Minimum Inhibitory Concentration (µM)
Field format: number, assumed µM, no unit text.

Answered examples (7):
KTYYGNGVHCTKKSLWGKVRLKNVIPGTLSRKQSLPIKQDLKILLGWATGAFGKTFH [AcdA(dT,C31S)]; 32
KTYYGNGVHCTKKSLWGKVRLKNVIPGTLCRKQSLPIKQDLKILLGWATGAFGKTFH (cysteines drawn unpaired) [AcdA(dT) (DTT reduced)]; 16
KTYVGNTGYHCTKKSLWGKVRLKNVIPGTLCRKQSLPIKQDLKILLGWATGAFGKTFH (disulfide 11-31) [AcdA(x4)]; 16
KTYYGNGVHCTKKSLWGKVRLKNVIPGTLCRKQSLPIKQDLKILLGWATGAFGKTFH (disulfide 10-30) [AcdA(dT)]; 8
KTYYGNGVHSTKKSLWGKVRLKNVIPGTLCRKQSLPIKQDLKILLGWATGAFGKTFH [AcdA(dT,C11S)]; 32
KTYYGTNGVHCTKKSLWGKVRLKNVIPGTLCRKQSLPIKQDLKILLGWATGAFGKTFH (cysteines drawn unpaired) [AcdA (DTT reduced)]; 16
HCTKKSLWGKVRLKNVIPGTLCRKQSLPIKQDLKILLGWATGAFGKTFH (disulfide 2-22) [AcdA(d9)]; 16

// below: Minimum Inhibitory Concentration requested for another sequence
Need Minimum Inhibitory Concentration of KTYYGTNAVHCTKKSLWGKVRLKNVIPGTLCRKQSLPIKQDLKILLGWATGAFGKTFH (disulfide 11-31) [AcdA(G8A)] , thanks. 8

###

- System: M. phlei Ac-1221
- Assay type: cell-based
- condition: 24 h
Positions of bridges follow the written chain, without caps; N, C: chain ends. No end group written: not given here.
Quick reference: Minimum Inhibitory Concentration of the listed items.
A complete answer gives the number followed by the unit.

KTYVGNTGYHCTKKSLWGKVRLKNVIPGTLCRKQSLPIKQDLKILLGWATGAFGKTFH (disulfide 11-31) [AcdA(x4)]; 4 µM
KTYYGNGVHSTKKSLWGKVRLKNVIPGTLSRKQSLPIKQDLKILLGWATGAFGKTFH [AcdA(dT,C11S,C31S)]; 8 µM
KTYYGNGVHCTKKSLWGKVRLKNVIPGTLCRKQSLPIKQDLKILLGWATGAFGKTFH (cysteines drawn unpaired) [AcdA(dT) (DTT reduced)]; 4 µM

Please state recorded Minimum Inhibitory Concentration (tested on M. phlei Ac-1221) of KTYYGTNGVHCTKKSLWGKVRLKNVIPGTLCRKQSLPIKQDLKILLGWATGAFGKTFH (cysteines drawn unpaired) [AcdA (DTT reduced)] 4 µM

###

- System: E. coli ML-35p
- Format: cell-based
- condition: 24 h
Positions of bridges follow the written chain, without caps; N, C: chain ends. No end group written: not given here.
Quick reference: Minimum Inhibitory Concentration of the listed items.
Field format: number, assumed µM, no unit text.

KTYYGNGVHCTKKSLWGKVRLKNVIPGTLCRKQSLPIKQDLKILLGWATGAFGKTFH (disulfide 10-30) [AcdA(dT)]; 2

Need Minimum Inhibitory Concentration of KTYYGNGVHSTKKSLWGKVRLKNVIPGTLCRKQSLPIKQDLKILLGWATGAFGKTFH [AcdA(dT,C11S)] , thanks. 4

###

- System: E. coli ML-35p
- Assay type: cell-based
- condition: 24 h
Positions of bridges follow the written chain, without caps; N, C: chain ends. No end group written: not given here.
experimental-readout: Minimum Inhibitory Concentration
A complete answer gives the number followed by the unit.

Answered examples (2):
KTYYGNGVHCTKKSLWGKVRLKNVIPGTLCRKQSLPIKQDLKILLGWATGAFGKTFH (cysteines drawn unpaired) [AcdA(dT) (DTT reduced)]; 4 µM
KTYYGTNAVHCTKKSLWGKVRLKNVIPGTLCRKQSLPIKQDLKILLGWATGAFGKTFH (disulfide 11-31) [AcdA(G8A)]; 8 µM

Need Minimum Inhibitory Concentration of KTYVGNTGYHCTKKSLWGKVRLKNVIPGTLCRKQSLPIKQDLKILLGWATGAFGKTFH (disulfide 11-31) [AcdA(x4)] , thanks. 8 µM
